Hello, the source for this data is PubChem BioAssay, in case you need it.

glutamate uptake change values for the compounds below.
# TEST NAME: glutamate transport activators, MN-1 cells, MN-1 cell line (AID 1612);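 also: tested at 1 µM final; 0% = mean of DMSO vehicle wells on each plate; positive means more glutamate uptake than control and negative means less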
# EXPERIMENTAL CONDITIONS: MN-1 motor neuron cells, stronger effect = higher value
Numbered stars: 1 amine (or outer) side, 2 acyl side, 3 side chain; on linkers, the order of the positions; unused ones are H or OH. Bridge positions count the residues as written; N and C are the ends. Square brackets hold non-standard residues; d marks the D form. Peptide text beside a SMILES is read from it. * marks the point of attachment. ξ: configuration not given here. ΔAla(Z-3-ureido) = NC(=O)N/C=C(\N)C(=O)O; X2 = NC1=NCCC(C(N[*:1])C(=O)[*:2])N1; ξβ3hOrn = NCCCC(N)CC(=O)*; Dap = NC[CH](N)C(=O)O
Provide the reading as a plain figure in %.

Worked cases, answers included:
NCCCCC(N)C(=O)NCC(=O)NC(Cc1cnc[nH]1)C(=O)NC(CCCCN)C(=O)O (configuration not stated) (H-KGHK-OH; configuration not given here)	18.4
NCCCC(N)CC(=O)NCC1NC(=O)C(CO)NC(=O)C(N)CNC(=O)C(C2CCN=C(N)N2)NC(=O)/C(=C/NC(N)=O)NC1=O (stereo not drawn) (H-[Dap]S[Dap](ξβ3hOrn)[ΔAla(Z-3-ureido)][X2]; lactam 1-C; configuration not given here)	13.7
CCC(=O)O[C@@H](O[P@](=O)(CCCCc1ccccc1)CC(=O)N1C[C@H](C2CCCCC2)C[C@H]1C(=O)O)C(C)C	4.48
CC(C)CC1NC(=O)CNC1=O (configuration not stated)	-1.97
CCN(CCCc1ccccc1)CCCc1ccccc1 (tested in a mixture with another compound)	20.1
CC(=O)OCC(=O)[C@@]1(O)CC[C@H]2C3CCC4=CC(=O)CCC4(C)[C@@]3(F)[C@@H](O)CC21C (some centres not stated)	7.44

// switching to the query compound
Look up glutamate uptake change: CC[C@]12CCCN3CCc4c(n(c5ccccc45)[C@](O)(C(=O)OC)C1)[C@@H]32 -2.93

----------
# TEST NAME: drug combination growth inhibition, ovarian cancer – cell-based, oncology-focused library, rucaparib conditional, profiling panel (AID 1508598)
# EXPERIMENTAL CONDITIONS: patient-derived ovarian cancer cells, CellTiter-Glo viability, 144 h; at 0.000305 µM; OCI-P5x cells; with rucaparib 20 µM; stronger effect = lower value; 100% = cells with rucaparib alone
Quick reference: viability of the listed items.
Your answer is read as %, so omit the unit and give the number.

Known viability results, listed for orientation:
C[C@]12C=CC(=O)C=C1CC[C@@H]1[C@H]2C(=O)C[C@@]2(C)[C@H]1CC[C@@]2(O)C(=O)CO	93.3
O=c1[nH]c(=O)n([C@@H]2C[C@H](O)[C@@H](CO)O2)cc1F	67.7
CCOc1ccc(Cc2cc([C@@H]3O[C@H](CO)[C@@H](O)[C@H](O)[C@@H]3O)ccc2Cl)cc1	94.3

Suppose we examine the compound O=C(O)c1cc(I)ccc1NC(=O)[C@H](Cc1ccccc1)NCc1ccccc1 ; what viability value has been reported? 98.3

What do you have for C=CS(=O)(=O)NC1CCN(C(=O)CNc2cc(I)c(Cl)cc2OC)CC1 ? 97.3

And then Cc1ccc(NC(=O)c2ccc(CN3CCN(C)CC3)cc2)cc1Nc1nc(-c2cccnc2)cs1 , what is it? 105

Next record, please: C[C@@]1(c2nc3c(C(N)=O)cccc3[nH]2)CCCN1 108

Please do the same for CCc1c2c(nc3ccc(OC(=O)N4CCC(N5CCCCC5)CC4)cc13)-c1cc3c(c(=O)n1C2)COC(=O)[C@@]3(O)CC as well. 119

Also check CC1=C(/C=C/C(C)=C\C=C\C(C)=C/C(=O)O)C(C)(C)CCC1 94.7
